target: SMARCA4 (Homo sapiens, UniProt P51532); construct: endogenous in cells; host or cells: MV4-11; assay: SMARCA4 Western blot MV4-11 degradation; format: cell-based; conditions: MV4-11 cells, 24 hours, read-out: SMARCA4 WB MV411 degradation 24h: Average Dmax %
Sequence (P51532 whole entry): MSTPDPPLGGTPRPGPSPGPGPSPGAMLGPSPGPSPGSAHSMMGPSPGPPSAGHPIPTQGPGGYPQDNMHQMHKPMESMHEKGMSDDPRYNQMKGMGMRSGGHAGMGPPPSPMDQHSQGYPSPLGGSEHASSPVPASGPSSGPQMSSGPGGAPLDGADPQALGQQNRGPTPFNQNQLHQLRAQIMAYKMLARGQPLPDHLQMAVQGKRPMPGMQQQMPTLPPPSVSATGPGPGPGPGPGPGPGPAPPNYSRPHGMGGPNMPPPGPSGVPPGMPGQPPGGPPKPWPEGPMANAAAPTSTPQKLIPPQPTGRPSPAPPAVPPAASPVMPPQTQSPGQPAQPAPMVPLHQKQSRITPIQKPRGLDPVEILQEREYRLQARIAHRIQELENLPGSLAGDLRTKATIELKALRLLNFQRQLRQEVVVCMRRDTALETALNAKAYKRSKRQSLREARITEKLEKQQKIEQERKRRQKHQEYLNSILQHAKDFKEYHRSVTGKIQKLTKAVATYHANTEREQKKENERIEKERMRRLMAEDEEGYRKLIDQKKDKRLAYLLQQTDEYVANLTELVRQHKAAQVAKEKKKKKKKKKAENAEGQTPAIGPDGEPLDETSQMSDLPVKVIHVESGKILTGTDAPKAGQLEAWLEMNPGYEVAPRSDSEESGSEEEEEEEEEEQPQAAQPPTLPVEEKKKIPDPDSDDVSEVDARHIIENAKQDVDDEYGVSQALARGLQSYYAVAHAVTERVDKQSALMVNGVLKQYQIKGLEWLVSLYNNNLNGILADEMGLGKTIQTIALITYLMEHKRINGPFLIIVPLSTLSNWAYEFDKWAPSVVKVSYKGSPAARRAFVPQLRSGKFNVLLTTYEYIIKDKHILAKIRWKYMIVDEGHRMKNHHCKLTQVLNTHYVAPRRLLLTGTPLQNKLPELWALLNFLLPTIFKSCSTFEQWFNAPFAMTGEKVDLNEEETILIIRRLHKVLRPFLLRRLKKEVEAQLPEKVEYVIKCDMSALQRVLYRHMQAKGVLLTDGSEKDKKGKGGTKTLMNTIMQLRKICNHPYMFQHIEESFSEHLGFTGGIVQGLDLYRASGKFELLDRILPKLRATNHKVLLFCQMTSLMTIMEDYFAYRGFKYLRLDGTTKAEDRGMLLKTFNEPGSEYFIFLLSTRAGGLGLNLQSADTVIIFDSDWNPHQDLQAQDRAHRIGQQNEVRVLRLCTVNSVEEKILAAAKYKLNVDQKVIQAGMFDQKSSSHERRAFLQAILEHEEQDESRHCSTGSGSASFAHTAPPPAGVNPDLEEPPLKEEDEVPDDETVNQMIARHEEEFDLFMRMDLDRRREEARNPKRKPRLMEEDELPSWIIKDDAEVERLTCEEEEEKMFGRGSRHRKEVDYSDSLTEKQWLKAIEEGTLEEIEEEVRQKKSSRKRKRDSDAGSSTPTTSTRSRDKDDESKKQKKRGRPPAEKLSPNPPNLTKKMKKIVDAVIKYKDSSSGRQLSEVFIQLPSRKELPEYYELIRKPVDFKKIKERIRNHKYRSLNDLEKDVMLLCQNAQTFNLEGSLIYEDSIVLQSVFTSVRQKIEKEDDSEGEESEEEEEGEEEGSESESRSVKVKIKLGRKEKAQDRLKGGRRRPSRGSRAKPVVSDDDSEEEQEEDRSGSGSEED
Dmax: recorded values

Ask: API: value(readout=Dmax, system=SMARCA4 (Homo sapiens, UniProt P51532)) for record Cc1ncsc1-c1ccc(CNC(=O)[C@@H]2C[C@@H](O)CN2C(=O)[C@@H](NC(=O)[C@H]2CC[C@H](c3cnc(N4CCC(c5c[nH]c6nnc(-c7ccccc7O)cc56)CC4)nc3)CC2)C(C)(C)C)cc1 [I-46]
Result: 50 to 70%

Ask: Cc1ncsc1-c1ccc(CNC(=O)[C@@H]2C[C@@H](O)CN2C(=O)[C@@H](NC(=O)C2(F)CC2)C(C)(C)C)c(OCCCCCCN2CCC(c3c[nH]c4nnc(-c5ccccc5O)cc34)CC2)c1 [I-48] ?
Result: < 50%

====

molecular target: SMARCA4 (Homo sapiens, UniProt P51532); construct: endogenous in cells; host or cells: MV4-11; assay: SMARCA4 Western blot MV4-11 degradation; format: cell-based; details: MV4-11 cells, 24 hours, read-out: SMARCA4 WB MV411 degradation 24h: Average Dmax %
Dmax: recorded values

The examples below pair each entry with its known result.
Cc1ncsc1-c1ccc(CNC(=O)[C@@H]2C[C@@H](O)CN2C(=O)[C@@H](NC(=O)CCCN(C)Cc2cnc(N3CCC(c4c[nH]c5nnc(-c6ccccc6O)cc45)CC3)nc2)C(C)(C)C)cc1 [I-51]: < 50%
NCC#Cc1cnc(N2CCC(c3c[nH]c4nnc(-c5ccccc5O)cc34)CC2)nc1 [I-55]: > 90%

Ask: Value lookup for Dmax; key = Cc1ncsc1-c1ccc(CNC(=O)[C@@H]2C[C@@H](O)CN2C(=O)[C@@H](NC(=O)CCCCCN(C)Cc2cnc(N3CCC(c4c[nH]c5nnc(-c6ccccc6O)cc45)CC3)nc2)C(C)(C)C)cc1 [I-52]
Result: 50 to 70%

Ask: Cn1c(=O)n(C2CCC(=O)NC2=O)c2cccc(CCCCCN3CCC(c4c[nH]c5nnc(-c6ccccc6O)cc45)CC3)c21 (stereo not drawn) [I-10] ?
Result: < 50%

Ask: Cc1ncsc1-c1ccc(CNC(=O)[C@@H]2C[C@@H](O)CN2C(=O)[C@@H](NC(=O)CN(C)Cc2cnc(N3CCC(c4c[nH]c5nnc(-c6ccccc6O)cc45)CC3)nc2)C(C)(C)C)cc1 [I-50] ?
Result: < 50%

Ask: Cn1c(=O)n(C2CCC(=O)NC2=O)c2cccc(CCCOCCCN3CCC(c4c[nH]c5nnc(-c6ccccc6O)cc45)CC3)c21 (stereo not drawn) [I-6] ?
Result: < 50%

====

DC50: recorded values
target: SMARCA2 (Homo sapiens, UniProt P51531); experiment: MSD SMARCA2 degradation in A549 cell line; format: cell-based; design: endogenous in cells; host or cells: A549; conditions: A549 cells, 24 hours, read-out: SMARCA2 MSD A549 degradation 24h: Average external-Abs DC50
Sequence (P51531 whole entry): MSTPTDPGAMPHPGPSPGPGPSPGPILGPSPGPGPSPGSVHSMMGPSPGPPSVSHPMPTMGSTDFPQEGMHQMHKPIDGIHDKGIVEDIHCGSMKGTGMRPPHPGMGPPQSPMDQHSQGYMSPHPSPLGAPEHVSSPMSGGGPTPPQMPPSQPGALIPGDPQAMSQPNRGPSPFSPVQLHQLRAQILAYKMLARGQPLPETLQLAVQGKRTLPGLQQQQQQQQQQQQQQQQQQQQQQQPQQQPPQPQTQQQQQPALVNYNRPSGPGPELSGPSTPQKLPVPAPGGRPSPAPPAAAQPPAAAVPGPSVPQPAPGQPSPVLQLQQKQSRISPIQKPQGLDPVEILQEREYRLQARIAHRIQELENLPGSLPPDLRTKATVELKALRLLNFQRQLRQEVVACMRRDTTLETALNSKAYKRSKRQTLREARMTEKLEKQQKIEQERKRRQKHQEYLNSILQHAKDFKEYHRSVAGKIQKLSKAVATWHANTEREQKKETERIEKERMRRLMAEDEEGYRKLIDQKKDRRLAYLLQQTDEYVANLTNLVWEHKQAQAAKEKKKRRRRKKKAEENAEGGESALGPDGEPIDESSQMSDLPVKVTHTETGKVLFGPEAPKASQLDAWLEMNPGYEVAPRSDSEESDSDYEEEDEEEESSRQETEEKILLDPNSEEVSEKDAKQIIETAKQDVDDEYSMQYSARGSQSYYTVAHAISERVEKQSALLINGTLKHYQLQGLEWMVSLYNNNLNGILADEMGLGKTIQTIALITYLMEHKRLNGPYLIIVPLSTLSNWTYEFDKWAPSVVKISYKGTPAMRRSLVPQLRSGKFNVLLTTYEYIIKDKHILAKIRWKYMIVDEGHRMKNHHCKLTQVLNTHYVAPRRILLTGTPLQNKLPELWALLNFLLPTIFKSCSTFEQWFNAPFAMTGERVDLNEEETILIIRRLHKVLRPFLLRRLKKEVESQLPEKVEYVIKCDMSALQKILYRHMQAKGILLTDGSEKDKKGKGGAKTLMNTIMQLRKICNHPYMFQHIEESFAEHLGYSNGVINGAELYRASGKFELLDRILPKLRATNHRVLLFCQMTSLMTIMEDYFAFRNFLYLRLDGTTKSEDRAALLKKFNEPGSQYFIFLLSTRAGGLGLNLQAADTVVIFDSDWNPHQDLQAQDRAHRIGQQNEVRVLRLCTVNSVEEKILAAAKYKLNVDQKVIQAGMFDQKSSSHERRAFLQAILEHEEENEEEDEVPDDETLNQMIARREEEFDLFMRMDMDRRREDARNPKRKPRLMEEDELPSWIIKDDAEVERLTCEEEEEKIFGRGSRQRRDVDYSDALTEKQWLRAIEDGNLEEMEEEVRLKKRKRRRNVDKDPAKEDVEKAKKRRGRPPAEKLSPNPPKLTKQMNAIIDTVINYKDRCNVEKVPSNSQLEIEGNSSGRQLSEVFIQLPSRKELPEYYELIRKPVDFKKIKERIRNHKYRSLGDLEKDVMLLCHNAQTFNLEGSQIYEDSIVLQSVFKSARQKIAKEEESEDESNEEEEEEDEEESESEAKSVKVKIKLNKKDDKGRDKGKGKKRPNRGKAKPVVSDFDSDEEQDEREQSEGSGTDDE

Cc1ncsc1-c1ccc(CNC(=O)[C@@H]2C[C@@H](O)CN2C(=O)[C@@H](NC(=O)CN2CCC(c3cnc(N4CCC(c5c[nH]c6nnc(-c7ccccc7O)cc56)CC4)nc3)CC2)C(C)(C)C)cc1: 501 to 1000 nM

Ask: API: value(readout=DC50, system=SMARCA2 (Homo sapiens, UniProt P51531)) for record CN(CC#Cc1cnc(N2CCC(c3c[nH]c4nnc(-c5ccccc5O)cc34)CC2)nc1)CCCc1ccc2c(c1)n(C)c(=O)n2C1CCC(=O)NC1=O (stereo not shown)
Result: > 1000 nM

Ask: "Cc1ncsc1-c1ccc(CNC(=O)[C@@H]2C[C@@H](O)CN2C(=O)[C@@H](NC(=O)CN(C)Cc2cnc(N3CCC(c4c[nH]c5nnc(-c6ccccc6O)cc45)CC3)nc2)C(C)(C)C)cc1" ?
Result: > 1000 nM

Ask: "Cc1ncsc1-c1ccc(CNC(=O)[C@@H]2C[C@@H](O)CN2C(=O)[C@@H](NC(=O)[C@H]2CC[C@H](c3cnc(N4CCC(c5c[nH]c6nnc(-c7ccccc7O)cc56)CC4)nc3)CC2)C(C)(C)C)cc1" ?
Result: < 100 nM

Ask: CN(CCCc1cnc(N2CCC(c3c[nH]c4nnc(-c5ccccc5O)cc34)CC2)nc1)CCCc1ccc2c(c1)n(C)c(=O)n2C1CCC(=O)NC1=O (stereo not shown) ?
Result: > 1000 nM

Ask: "Cc1ncsc1-c1ccc(CNC(=O)[C@@H]2C[C@@H](O)CN2C(=O)[C@@H](NC(=O)CCCCCN(C)Cc2cnc(N3CCC(c4c[nH]c5nnc(-c6ccccc6O)cc45)CC3)nc2)C(C)(C)C)cc1" ?
Result: > 1000 nM

Ask: "Cc1ncsc1-c1ccc(CNC(=O)[C@@H]2C[C@@H](O)CN2C(=O)[C@@H](NC(=O)CN2CCC(c3cc(N4CCC(c5c[nH]c6nnc(-c7ccccc7O)cc56)CC4)ncn3)CC2)C(C)(C)C)cc1" ?
Result: > 1000 nM

Ask: "Cc1ncsc1-c1ccc(CNC(=O)[C@@H]2C[C@@H](O)CN2C(=O)[C@@H](NC(=O)CCCN(C)Cc2cnc(N3CCC(c4c[nH]c5nnc(-c6ccccc6O)cc45)CC3)nc2)C(C)(C)C)cc1" ?
Result: > 1000 nM

Ask: "NCC#Cc1cnc(N2CCC(c3c[nH]c4nnc(-c5ccccc5O)cc34)CC2)nc1" ?
Result: > 1000 nM

Ask: "Cc1ncsc1-c1ccc(CNC(=O)[C@@H]2C[C@@H](O)CN2C(=O)[C@@H](NC(=O)C2(F)CC2)C(C)(C)C)c(OCCCCCCN2CCC(c3c[nH]c4nnc(-c5ccccc5O)cc34)CC2)c1" ?
Result: > 1000 nM

Ask: "Cc1ncsc1-c1ccc(CNC(=O)[C@@H]2C[C@@H](O)CN2C(=O)[C@@H](NC(=O)C2(F)CC2)C(C)(C)C)c(OCCN2CCC(c3c[nH]c4nnc(-c5ccccc5O)cc34)CC2)c1" ?
Result: > 1000 nM

Ask: "Cc1ncsc1-c1ccc(CNC(=O)[C@@H]2C[C@@H](O)CN2C(=O)[C@@H](NC(=O)C2(F)CC2)C(C)(C)C)c(OCCCCCCCCN2CCC(c3c[nH]c4nnc(-c5ccccc5O)cc34)CC2)c1" ?
Result: > 1000 nM

Ask: "Cc1ncsc1-c1ccc(CNC(=O)[C@@H]2C[C@@H](O)CN2C(=O)[C@@H](NC(=O)[C@H]2CC[C@@H](c3cnc(N4CCC(c5c[nH]c6nnc(-c7ccccc7O)cc56)CC4)nc3)CC2)C(C)(C)C)cc1" ?
Result: 501 to 1000 nM
